Below, each entry is listed with its recorded PBM E-score.
- target system: Yer064c (UniProt P40041)
- Sequence: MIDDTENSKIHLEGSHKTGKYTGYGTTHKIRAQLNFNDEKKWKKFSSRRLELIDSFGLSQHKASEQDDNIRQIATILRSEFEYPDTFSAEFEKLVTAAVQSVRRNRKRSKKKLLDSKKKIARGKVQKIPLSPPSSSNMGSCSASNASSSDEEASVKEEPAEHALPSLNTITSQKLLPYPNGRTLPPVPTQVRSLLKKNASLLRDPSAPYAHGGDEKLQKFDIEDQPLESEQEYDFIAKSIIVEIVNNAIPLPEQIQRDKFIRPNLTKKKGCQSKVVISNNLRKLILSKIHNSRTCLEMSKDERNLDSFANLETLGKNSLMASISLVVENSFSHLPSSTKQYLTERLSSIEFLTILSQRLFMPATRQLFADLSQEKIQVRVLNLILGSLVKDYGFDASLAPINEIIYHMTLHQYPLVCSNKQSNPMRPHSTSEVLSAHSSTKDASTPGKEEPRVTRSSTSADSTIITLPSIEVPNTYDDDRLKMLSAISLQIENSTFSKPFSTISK
- assay remarks: PBM E-score (8-mer binding enrichment) (E-score (-0.5 to 0.5)); higher = stronger / more preferred TF binding
- condition parameters: protein concentration: 200 nM; construct: GST-full length
Whole data set: some 33,000 sequences, median “E-score (-0.5 to 0.5)” near -0.036, cut for the highest 2% near 0.37. What follows is part of a selection rich in the highest values, with near analogues and random picks from the rest.
Give the figure only, with no unit attached.

Inquiry: Report PBM E-score for AATTCAAT please.
Reply text: 0.0175

Inquiry: Name the recorded PBM E-score for CATAGCAA .
Reply text: -0.0521

Inquiry: Please look up its PBM E-score: CCGACTTA
Reply text: 0.263

Inquiry: Need PBM E-score of GAGTTCGA , thanks.
Reply text: 0.185
